# SYSTEM NAME: PIK3CD (Human)
# MEASUREMENT PROTOCOL: Cell-Based Assay
# SETTINGS: rat-1
Here the recorded IC50 is given for each entry.
PROPERTY MEASURED: IC50

INSERT INTO assay_data (smiles_data, system_name, measured) VALUES
  ('N#Cc1c(N)ncnc1N1CCC[C@H]1c1nc2cccc(F)c2c(=O)n1-c1ccccc1', 'PIK3CD (Human)', '< 3 nM'),
  ('N#Cc1cnc(N)nc1N1CCC[C@H]1c1nc2cccc(C(F)(F)F)c2c(=O)n1-c1ccccc1', 'PIK3CD (Human)', '< 3 nM'),
  ('Nc1nc(N2CCC[C@H]2c2nc3cccc(Cl)c3c(=O)n2-c2ccccc2)c2ncsc2n1', 'PIK3CD (Human)', '< 3 nM'),
  ('Cc1nc(N)nc(N2C[C@@H](O)C[C@H]2c2nc3ccc(F)c(F)c3c(=O)n2-c2ccccc2)c1C#N', 'PIK3CD (Human)', '30 nM'),
  ('COc1cccc2nc([C@@H]3CCCN3c3ncnc(N)c3C#N)n(-c3ccccc3)c(=O)c12', 'PIK3CD (Human)', '> 10000 nM'),
  ('N#Cc1c(N)ncnc1N1CCC[C@H]1c1nc2ccc(F)c(F)c2c(=O)n1-c1ccccc1', 'PIK3CD (Human)', '< 3 nM');
